- target.or.system: TrkB (Homo sapiens (Human), UniProt Q16620 32-430)
- Sequence (Q16620 32-430 limits assumed): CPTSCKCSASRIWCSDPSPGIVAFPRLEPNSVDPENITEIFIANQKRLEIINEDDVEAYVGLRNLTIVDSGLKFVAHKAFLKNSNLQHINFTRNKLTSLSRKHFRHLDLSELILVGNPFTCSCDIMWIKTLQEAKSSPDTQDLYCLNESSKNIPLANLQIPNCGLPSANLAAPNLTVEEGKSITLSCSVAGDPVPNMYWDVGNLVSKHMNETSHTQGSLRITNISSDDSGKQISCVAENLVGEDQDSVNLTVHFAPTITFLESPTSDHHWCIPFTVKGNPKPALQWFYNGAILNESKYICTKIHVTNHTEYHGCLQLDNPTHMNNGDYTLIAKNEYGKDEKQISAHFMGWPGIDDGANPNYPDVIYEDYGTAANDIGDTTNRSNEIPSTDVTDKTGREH
- experimental.details: koff of Fab at 25 C; T1/2=Log2/koff
outcome.measure: T1/2 (min)
# output: bare number, implied unit min

binder	units.label	T1/2
16-A6 (Fab, V domains shown, Fab) VH: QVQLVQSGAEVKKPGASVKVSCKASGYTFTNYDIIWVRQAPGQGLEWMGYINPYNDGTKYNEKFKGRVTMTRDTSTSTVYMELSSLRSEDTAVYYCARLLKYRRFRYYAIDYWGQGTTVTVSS VL: DIQMTQSPSSLSASVGDRVTITCRTSENVYSNLAWYQQKPGKAPKLLIYAASNLADGVPSRFSGSGSGTDFTFTISSLQPEDIATYYCQHFWASPFTFGQGTKLEIK	min	1

Query: // lookup T1/2 for 12-B5 (Fab, V domains shown, Fab) VH: QVQLVQSGAEVKKPGASVKVSCKASGYTFTNYDIIWVRQAPGQGLEWMGYINPYNRRIEYNEKFKGRVTMTRDTSTSTVYMELSSLRSEDTAVYYCARLLKYRRFRYYAIDYWGQGTTVTVSS VL: DIQMTQSPSSLSASVGDRVTITCRASENVYSHLAWYQQKPGKAPKLLIYAASNLQSGVPSRFSGSGSGTDYTFTISSLQPEDIATYYCQHFWGSPFTFGQGTKLEIK
Reply: 10

Query: // lookup T1/2 for A6-9 (Fab, V domains shown, Fab) VH: QVQLVQSGAEVKKPGASVKVSCKASGYTFTNYDIIWVRQAPGQGLEWMGYINPYNDRRRYNEKFKGRVTMTRDTSTSTVYMELSSLRSEDTAVYYCARLLKYRRFRYYAIDYWGQGTTVTVSS VL: DIQMTQSPSSLSASVGDRVTITCHASENVYSNLAWYQQKPGKAPKLLIYAASNLQSGVPSRFSGSGSGTDYTFTISSLQPEDIATYYCQHFWGSPFTFGQGTKLEIK
Reply: 11.8
